- subject of test: T1, recombinant human PDL1 (human, UniProt Q9NZQ7 19-238, limits assumed)
- T1 construct: SPR antigen; also called CD274; B7-H1
- assay details: SPR
measure: kon (M⁻¹ s⁻¹)
# output: bare number, implied unit M⁻¹ s⁻¹

{"binder": "PRO4245 (scFv, anti-PDL1 scFv) scFv: DIQMTQSPSSLSASVGDRVTITCQASQSIGTYLAWYQQKPGKPPKLLIYRGGILASGVPSRFSGSGSGTDFTLTISSLQPEDFATYYCQSNFYSDSTTIGPNAFGTGTKVTVLGGGGGSGGGGSGGGGSGGGGSQQLVESGGGLVQPGGSLRLSCAASGFSFNSDYWIYWVRQAPGKGLEWIASIYGGSSGNTQYASWAQGRFTISKDNSKNTVYLQMNSLRAEDSAVYFCARGYVDYGGATDLWGQGTLVKVSS", "unit info": "M⁻¹ s⁻¹", "numeric readout": "4e+06"}
{"binder": "PRO3723 (scFv, anti-PDL1 scFv) scFv: DIQMTQSPASLSASVGDRVTITCQASQSIGTYLAWYQQKPGKPPKLLIYRGGILASGVPSRFSGSGSGTDFTLTISSLQPEDFATYYCQSNFYSDSTTIGPNAFGTGTKVTVLGGGGGSGGGGSGGGGSGGGGSEVQLVESGGGLVQPGGSLRLSCAASGFSFNSDYWIYWVRQAPGKGLEWIACIYGGSSGNTQYASWAQGRFTISRDNSKNTVYLQMNSLRAEDTAVYFCARGYVDYGGATDLWGQGTLVTVSS", "unit info": "M⁻¹ s⁻¹", "numeric readout": "3.08e+06"}

Would you kindly look at the next entry?
[in] Report kon for PRO1347 (scFv, anti-PDL1 scFv; also called 37-20-B03-sc09) scFv: DIQMTQSPASLSASVGDRVTITCQASQSIGTYLAWYQQKPGKPPKLLIYRAFILASGVPSRFSGSGSGTDFTLTISSLQPEDFATYYCQSNFYSDSTTIGPNAFGTGTKVTVLGGGGGSGGGGSGGGGSGGGGSEVQLVESGGGLVQPGGSLRLSCAASGFSFNSDYWIYWVRQAPGKGLEWIACIYGGSSGNTQYASWAQGRFTISRDNSKNTVYLQMNSLRAEDTAVYFCARGYVDYGGATDLWGQGTLVTVSS please.
[out] 7.38e+06
